System: Staphylococcus aureus
experimental protocol: Antimicrobial activity against Staphylococcus aureus ATCC 6538 by agar dilution method
Type: functional
For each record, write down the corresponding log10 of MIC.
Values reflect log10 of reported MIC (µg/mL).

## Input Return reported log10 of MIC. Input molecule: N[C@@H]1CCN2c3c(F)cc4c(=O)c(C(=O)O)cn(C5CC5)c4c3CCCC[C@H]12
## Output 0.60

## Input Return reported log10 of MIC. Input molecule: CCn1cc(C(=O)O)c(=O)c2cc(F)c(N3CCNCC3)c(Cl)c21
## Output 0.60

## Input Return reported log10 of MIC. Input molecule: CCn1cc(C(=O)O)c(=O)c2cc(F)c(N3CCCCC3)c(Cl)c21
## Output 0.30

## Input Return reported log10 of MIC. Input molecule: CCn1cc(C(=O)O)c(=O)c2cc(F)c(N3CCCC3)cc21
## Output -0.60

## Input Return reported log10 of MIC. Input molecule: CCn1cc(C(=O)O)c(=O)c2cc(F)c(N3CCCC(C)C3)c(Cl)c21 (configuration not stated)
## Output 0.30

## Input Return reported log10 of MIC. Input molecule: CCn1cc(C(=O)O)c(=O)c2cc(F)c(N3CCN(C)CC3)c(Cl)c21
## Output 0.60

## Input Return reported log10 of MIC. Input molecule: CCn1cc(C(=O)O)c(=O)c2cc(F)c(N3CCOCC3)cc21
## Output -0.49

## Input Return reported log10 of MIC. Input molecule: CCn1cc(C(=O)O)c(=O)c2cc(F)c(N3CCNC(C)C3)c(Cl)c21 (configuration not stated)
## Output 0.08

## Input Return reported log10 of MIC. Input molecule: CCn1cc(C(=O)O)c(=O)c2cc(F)c(N3CCNC(C)C3)c(Cl)c21.Cl (configuration not stated)
## Output 0.30
